experimentalTarget: NS3-NS4A protease of HCV genotype-3a (Hepatitis C virus genotype 3a)
Sequence (Q81258 1033-1213, other chains not shown): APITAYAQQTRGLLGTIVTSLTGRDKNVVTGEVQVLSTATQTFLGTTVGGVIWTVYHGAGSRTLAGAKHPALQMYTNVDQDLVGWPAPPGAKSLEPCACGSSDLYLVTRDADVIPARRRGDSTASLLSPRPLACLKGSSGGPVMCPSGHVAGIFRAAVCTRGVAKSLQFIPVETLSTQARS
assaySummary: FRET assay of NS3-NS4A protease activity with depsipeptide substrate
Assay type: biochemical
measurementParameters: FRET assay validation, 1 µM depsipeptide substrate, triplicates; read-out: IC50 value (commercial inhibitors) (converted)
Recorded measurements of IC50, one per entry

CCC[C@H](NC(=O)[C@@H]1[C@H]2CCC[C@H]2CN1C(=O)[C@@H](NC(=O)[C@@H](NC(=O)c1cnccn1)C1CCCCC1)C(C)(C)C)C(=O)C(=O)NC1CC1 [Telaprevir]    69.9 nM
C=C[C@@H]1C[C@]1(NC(=O)[C@@H]1C[C@@H](Oc2ncc(OC)c3ccc(Cl)cc23)CN1C(=O)[C@@H](NC(=O)OC(C)(C)C)C(C)(C)C)C(=O)NS(=O)(=O)C1CC1 [Asunaprevir]    68.3 nM
CC(C)(C)OC(=O)N[C@H]1CCCCC/C=C\[C@@H]2C[C@@]2(C(=O)NS(=O)(=O)C2CC2)NC(=O)[C@@H]2C[C@@H](OC(=O)N3Cc4cccc(F)c4C3)CN2C1=O [Danoprevir]    25.1 nM

What value of IC50 on NS3-NS4A protease of HCV genotype-3a (Hepatitis C virus genotype 3a) does COc1ccc2c(O[C@@H]3C[C@H]4C(=O)N[C@]5(C(=O)O)C[C@H]5/C=C\CCCCC[C@H](NC(=O)OC5CCCC5)C(=O)N4C3)cc(-c3csc(NC(C)C)n3)nc2c1 [Ciluprevir] have?
53.2 nM
